Attribution: ChEMBL document CHEMBL3232890

experiment: Inhibition of electric eel AChE type VI-S using acetylthiocholine iodide as substrate preincubated with enzyme for 10 mins prior to substrate challenge for 15 mins by Ellman's method; set-up: species or system Electrophorus electricus
Observation Type: pIC50
Scale: pIC50 equals -log10([C]), with [C] in mol/L.

CN1c2c(nn(-c3ccc(-c4nc5cncnc5[nH]4)cc3)c2-c2ccccc2)-c2ccccc2S1(=O)=O: 5.28
CN1c2c(nn(-c3ccc(-c4nc5cc(C(=O)O)ccc5[nH]4)cc3)c2-c2ccccc2)-c2ccccc2S1(=O)=O: 5.21

Let us move to another entry and its pIC50.
# query: pIC50 of entry Cc1c2c(nn1-c1ccc(-c3nc4ccccc4o3)cc1)-c1ccccc1S(=O)(=O)N2C
5.16

====

biological target: Cholinesterase (Equus caballus) (UniProt P81908); assay: Inhibition of BuChE in equine serum using butyrylthiocholine chloride as substrate at 500 uM preincubated with enzyme for 10 mins prior to substrate challenge for 15 mins by Ellman's method
Observation Type: inhibition (%)
Please state the figure in %; there is no need to write the unit.

Below, each entry is followed by its recorded inhibition result.
COc1ccc2[nH]c(-c3ccc(-n4nc5c(c4-c4ccccc4)N(C)S(=O)(=O)c4ccccc4-5)cc3)nc2c1: 37.3
CN1c2c(nn(-c3ccc(-c4nc5ccccc5o4)cc3)c2-c2ccccc2)-c2ccccc2S1(=O)=O: 36.5
Cc1ccc2[nH]c(-c3ccc(-n4nc5c(c4-c4ccccc4)N(C)S(=O)(=O)c4ccccc4-5)cc3)nc2c1: 31.8
Cc1c2c(nn1-c1ccc(-c3nc4cc(Cl)ccc4[nH]3)cc1)-c1ccccc1S(=O)(=O)N2C: 38.7

Please examine the following record next.
Recall the recorded inhibition for Cc1cc2nc(-c3ccc(-n4nc5c(c4-c4ccccc4)N(C)S(=O)(=O)c4ccccc4-5)cc3)[nH]c2cc1C with Cholinesterase (Equus caballus) (UniProt P81908) and state it.
34.1

====

# maps each entry to its pIC50
target: UniProt P81908; experiment: Inhibition of BuChE in equine serum using butyrylthiocholine chloride as substrate preincubated with enzyme for 10 mins prior to substrate challenge for 15 mins by Ellman's method
Reminder that pIC50 means the negative base-10 logarithm of the concentration expressed in mol/L.

Cc1c2c(nn1-c1ccc(-c3nc4ccccc4o3)cc1)-c1ccccc1S(=O)(=O)N2C: 7.77

Could you now look at the following compound, please?
# get_value(readout= pIC50, system= UniProt P81908) for CN(C)C(=O)Oc1cccc([N+](C)(C)C)c1
4.30

====

target: Cholinesterase (Equus caballus); test: Inhibition of BuChE in equine serum using butyrylthiocholine chloride as substrate preincubated with enzyme for 10 mins prior to substrate challenge for 15 mins by Ellman's method
Sequence (P81908 whole entry): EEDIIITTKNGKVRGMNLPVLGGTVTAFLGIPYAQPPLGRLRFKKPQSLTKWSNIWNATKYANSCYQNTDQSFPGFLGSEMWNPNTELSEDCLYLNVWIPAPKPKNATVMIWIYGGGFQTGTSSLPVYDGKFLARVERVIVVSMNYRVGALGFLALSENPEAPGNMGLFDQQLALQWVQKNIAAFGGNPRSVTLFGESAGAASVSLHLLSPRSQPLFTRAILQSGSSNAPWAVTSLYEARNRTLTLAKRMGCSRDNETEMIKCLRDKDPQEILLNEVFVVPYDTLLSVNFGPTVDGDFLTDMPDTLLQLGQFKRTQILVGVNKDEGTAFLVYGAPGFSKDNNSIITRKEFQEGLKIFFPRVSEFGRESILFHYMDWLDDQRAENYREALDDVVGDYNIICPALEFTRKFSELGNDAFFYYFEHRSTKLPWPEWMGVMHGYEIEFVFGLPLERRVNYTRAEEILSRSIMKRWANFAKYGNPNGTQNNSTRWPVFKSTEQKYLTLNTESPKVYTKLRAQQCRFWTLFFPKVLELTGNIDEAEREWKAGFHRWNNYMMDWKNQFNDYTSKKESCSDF
# reported log10 IC50; entries follow
Base-10 log of IC50, unit nM.

Examples from the recorded data:
Cc1cc2nc(-c3ccc(-n4nc5c(c4C)N(C)S(=O)(=O)c4ccccc4-5)cc3)[nH]c2cc1C: 2.44
Cc1ccc2[nH]c(-c3ccc(-n4nc5c(c4C)N(C)S(=O)(=O)c4ccccc4-5)cc3)nc2c1: 1.61
Cc1c2c(nn1-c1ccc(-c3nc4cc(C(=O)O)ccc4[nH]3)cc1)-c1ccccc1S(=O)(=O)N2C: 1.41
CN1c2c(nn(-c3ccc(-c4nc5cc(Cl)ccc5[nH]4)cc3)c2-c2ccccc2)-c2ccccc2S1(=O)=O: 4.00

What measured log10 IC50 goes with CN1c2c(nn(-c3ccc(-c4nc5cc(C(=O)O)ccc5[nH]4)cc3)c2-c2ccccc2)-c2ccccc2S1(=O)=O ?
3.66

# log10 IC50 lookup, item CCOC(=O)c1ccc2[nH]c(-c3ccc(-n4nc5c(c4-c4ccccc4)N(C)S(=O)(=O)c4ccccc4-5)cc3)nc2c1
2.26
